target: T1, human CD33 (human, UniProt P20138 18-259, limits assumed); assay: SPR (BIAcore), Fab over CD33 on C1 chip
T1 construct: Human CD33 immobilized on the BLI sensor tip or the BIAcore C1 chip; also called Siglec-3
T1 sequence (P20138 18-259 limits assumed): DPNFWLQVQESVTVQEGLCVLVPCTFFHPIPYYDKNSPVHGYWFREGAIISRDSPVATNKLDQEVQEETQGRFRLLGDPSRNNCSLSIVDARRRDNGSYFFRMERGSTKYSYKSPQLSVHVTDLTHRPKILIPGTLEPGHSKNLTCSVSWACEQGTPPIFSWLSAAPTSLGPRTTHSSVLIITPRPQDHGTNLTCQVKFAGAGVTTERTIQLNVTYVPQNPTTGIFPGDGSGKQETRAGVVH
The binders listed here are annotated with their koff.
The reply should read as a number followed by its unit.

• AB-64.6 (antibody, V domains shown) VH: QVQLVQSGAEVKKPGASVKISCKASGYTFTDYNYHWVRQAPGQGLEWIGFIYPSNGITGYAQKFQGRATLTVDNSTSTAYMELSSLRSEDTAVYYCARSDVDYFDYWGQGTLLTVSS VL: DIVLTQSPDSLAVSLGERATINCRASQDVSTSTYSYMHWYQQKPGQPPKLLIKYASFLESGVPDRFSGSGSGTDFTLTISSLQAEDVAVYYCQHSWEIPLTFGQGTKLEIK = 3.95e-05 s⁻¹

Query: Return reported koff; argument: AB-64.1.2 (antibody, V domains shown, Variant of AB-64.1) VH: QVQLVQSGAEVKKPGASVKISCKASGYTFTDYNLHWVRQAPGQGLEWIGFIYPSNRITGYAQKFQGRATLTVDNSTSTAYMELSSLRSEDTAVYYCARSDVDYFDYWGQGTLLTVSS VL: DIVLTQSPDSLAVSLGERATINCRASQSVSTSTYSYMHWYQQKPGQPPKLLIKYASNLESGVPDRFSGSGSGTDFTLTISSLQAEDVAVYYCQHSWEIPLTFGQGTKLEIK
Response: 0.000507 s⁻¹
